All figures here come from paper PMC7327521.

Molecular target: T1, Spt6-tSH2 S1283A (C. glabrata, UniProt Q6FLB1 1250-1444, S1283A)
T1 sequence (looked up): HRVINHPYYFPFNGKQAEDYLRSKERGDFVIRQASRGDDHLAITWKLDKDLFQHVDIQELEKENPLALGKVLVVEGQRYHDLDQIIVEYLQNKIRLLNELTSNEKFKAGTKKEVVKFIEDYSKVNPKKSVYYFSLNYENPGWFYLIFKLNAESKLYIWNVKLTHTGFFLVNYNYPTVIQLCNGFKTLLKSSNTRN
Assay: fluorescence polarisation
Square brackets hold non-standard residues; d marks the D form. Ends that are not written are not given here. pY = N[C@@H](Cc1ccc(OP(=O)(O)O)cc1)C(=O)O
assay.metric: Kd (µM)
Give bare numbers, in µM.

Lab note: {5,6‑FAM}-PS[pY]SPTSPS[pY]SPTSPS [(pY1-CTD)2, FAM-labelled tyrosine-phosphorylated CTD diheptad] gave Kd of 5.4
